- assay_target: Mineralocorticoid receptor (Homo sapiens, UniProt P08235)
- Sequence (P08235 whole entry): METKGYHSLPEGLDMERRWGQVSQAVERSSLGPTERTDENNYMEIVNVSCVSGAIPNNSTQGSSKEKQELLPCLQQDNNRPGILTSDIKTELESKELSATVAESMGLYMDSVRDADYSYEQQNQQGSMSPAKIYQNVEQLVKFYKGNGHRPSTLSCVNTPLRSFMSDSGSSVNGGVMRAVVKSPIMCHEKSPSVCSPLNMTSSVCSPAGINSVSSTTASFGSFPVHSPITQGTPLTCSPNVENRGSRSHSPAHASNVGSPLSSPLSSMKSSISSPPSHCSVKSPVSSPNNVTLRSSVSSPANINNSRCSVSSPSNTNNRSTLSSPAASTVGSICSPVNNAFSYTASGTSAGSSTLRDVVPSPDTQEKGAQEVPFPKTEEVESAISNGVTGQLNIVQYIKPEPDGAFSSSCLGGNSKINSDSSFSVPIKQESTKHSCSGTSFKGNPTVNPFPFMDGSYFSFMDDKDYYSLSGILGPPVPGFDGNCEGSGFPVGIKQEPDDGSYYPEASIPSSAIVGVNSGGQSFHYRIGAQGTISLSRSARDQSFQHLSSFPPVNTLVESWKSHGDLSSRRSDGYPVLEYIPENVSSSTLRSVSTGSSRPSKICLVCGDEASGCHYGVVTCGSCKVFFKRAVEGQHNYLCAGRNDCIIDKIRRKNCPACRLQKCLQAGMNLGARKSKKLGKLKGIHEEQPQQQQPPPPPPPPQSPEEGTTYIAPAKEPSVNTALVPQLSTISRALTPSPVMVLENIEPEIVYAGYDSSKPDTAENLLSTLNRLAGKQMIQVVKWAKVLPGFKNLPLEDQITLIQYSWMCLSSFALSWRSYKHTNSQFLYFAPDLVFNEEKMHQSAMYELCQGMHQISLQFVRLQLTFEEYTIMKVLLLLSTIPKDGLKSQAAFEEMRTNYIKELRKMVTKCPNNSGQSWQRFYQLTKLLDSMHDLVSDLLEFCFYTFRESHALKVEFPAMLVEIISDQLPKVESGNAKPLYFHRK
Field: Ki. Provide a value for each of the compounds that follow.
Respond numerically; units are nM and should not be typed.

What value of measured Ki is listed for `CC/C=C(\C)c1ccsc1/C=C1\Oc2ccc(O)c(OC)c2-c2ccc3c(c21)C(C)=CC(C)(C)N3` ?
42

What value of measured Ki is listed for `COCc1ccsc1/C=C1\Oc2ccc(O)c(OC)c2-c2ccc3c(c21)C(C)=CC(C)(C)N3` ?
10

What value of measured Ki is listed for COc1c(O)ccc2c1-c1ccc3c(c1/C(=C/c1sccc1C(O)C(F)(F)F)O2)C(C)=CC(C)(C)N3 (racemic) ?
670

What value of measured Ki is listed for `COc1c(O)ccc2c1-c1ccc3c(c1/C(=C/c1sccc1CO)O2)C(C)=CC(C)(C)N3` ?
980

What value of measured Ki is listed for `COc1c(O)ccc2c1-c1ccc3c(c1/C(=C/c1sccc1/C(C)=N/O)O2)C(C)=CC(C)(C)N3` ?
21

What value of measured Ki is listed for `CO/N=C(\C)c1ccsc1/C=C1\Oc2ccc(O)c(OC)c2-c2ccc3c(c21)C(C)=CC(C)(C)N3` ?
48

* * *

- Tested on: RPMI-8226
- procedure_text: Antiproliferative activity against human RPMI8226 cells after 4 days
- Assay type: functional, cell-based
- condition_description: RPMI-8226, 96 h
reported_metric: pIC50
The quantity pIC50 is defined as the negative base-10 logarithm of the molar concentration.

Request body: readout pIC50, system RPMI-8226, query `COc1c(O)ccc2c1-c1ccc3c(c1/C(=C/c1sccc1CO)O2)C(C)=CC(C)(C)N3` . Return the value.
8.31

Request body: readout pIC50, system RPMI-8226, query `COc1c(O)ccc2c1-c1ccc3c(c1/C(=C/c1sccc1/C(C)=N/O)O2)C(C)=CC(C)(C)N3` . Return the value.
8.00

Request body: readout pIC50, system RPMI-8226, query `COc1c(O)ccc2c1-c1ccc3c(c1/C(=C/c1sccc1COCCO)O2)C(C)=CC(C)(C)N3` . Return the value.
7.66

Request body: readout pIC50, system RPMI-8226, query `COC(=O)c1ccsc1/C=C1\Oc2ccc(O)c(OC)c2-c2ccc3c(c21)C(C)=CC(C)(C)N3` . Return the value.
7.57

Request body: readout pIC50, system RPMI-8226, query `COc1c(O)ccc2c1-c1ccc3c(c1/C(=C/c1sccc1C(=O)N1CCCCC1)O2)C(C)=CC(C)(C)N3` . Return the value.
7.80

Request body: readout pIC50, system RPMI-8226, query `COc1c(O)ccc2c1-c1ccc3c(c1/C(=C/c1sccc1C#N)O2)C(C)=CC(C)(C)N3` . Return the value.
7.85

Request body: readout pIC50, system RPMI-8226, query `COc1c(O)ccc2c1-c1ccc3c(c1/C(=C/c1sccc1CNCC(F)(F)F)O2)C(C)=CC(C)(C)N3` . Return the value.
7.74

Request body: readout pIC50, system RPMI-8226, query `COCc1ccsc1/C=C1\Oc2ccc(O)c(OC)c2-c2ccc3c(c21)C(C)=CC(C)(C)N3` . Return the value.
8.07

* * *

- assay_target: Progesterone receptor (Homo sapiens, UniProt P06401)
- Sequence (P06401 whole entry): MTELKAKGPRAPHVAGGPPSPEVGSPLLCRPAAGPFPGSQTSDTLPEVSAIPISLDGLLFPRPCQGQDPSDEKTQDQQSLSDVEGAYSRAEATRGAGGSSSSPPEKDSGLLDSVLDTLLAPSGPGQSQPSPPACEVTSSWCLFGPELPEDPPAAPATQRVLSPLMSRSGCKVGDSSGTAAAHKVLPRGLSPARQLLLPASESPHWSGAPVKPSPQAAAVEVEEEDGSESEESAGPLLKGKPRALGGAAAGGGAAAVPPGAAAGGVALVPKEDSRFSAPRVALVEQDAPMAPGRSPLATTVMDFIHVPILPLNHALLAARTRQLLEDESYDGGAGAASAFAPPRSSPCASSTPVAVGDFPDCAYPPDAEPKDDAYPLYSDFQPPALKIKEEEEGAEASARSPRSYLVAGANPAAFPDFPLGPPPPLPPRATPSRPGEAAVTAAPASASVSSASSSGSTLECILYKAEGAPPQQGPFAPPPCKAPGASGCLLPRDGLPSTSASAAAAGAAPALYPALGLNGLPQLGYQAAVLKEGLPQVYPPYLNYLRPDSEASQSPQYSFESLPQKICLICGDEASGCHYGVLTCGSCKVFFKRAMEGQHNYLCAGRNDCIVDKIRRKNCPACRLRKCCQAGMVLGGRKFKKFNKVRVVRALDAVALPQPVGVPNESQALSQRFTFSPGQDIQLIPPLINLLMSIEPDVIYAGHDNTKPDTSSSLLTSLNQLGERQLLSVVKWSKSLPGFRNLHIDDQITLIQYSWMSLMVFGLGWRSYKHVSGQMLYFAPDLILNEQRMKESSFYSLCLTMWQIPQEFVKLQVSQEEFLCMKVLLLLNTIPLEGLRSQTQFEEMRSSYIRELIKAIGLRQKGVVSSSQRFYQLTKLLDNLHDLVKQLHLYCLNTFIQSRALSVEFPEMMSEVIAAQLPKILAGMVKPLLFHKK
reported_metric: pKi
The quantity pKi is defined as the negative base-10 logarithm of the molar concentration.

Request body: readout pKi, system Progesterone receptor (Homo sapiens, UniProt P06401), query `CO/N=C(\C)c1ccsc1/C=C1\Oc2ccc(O)c(OC)c2-c2ccc3c(c21)C(C)=CC(C)(C)N3` . Return the value.
7.42

Request body: readout pKi, system Progesterone receptor (Homo sapiens, UniProt P06401), query `COCc1ccsc1/C=C1\Oc2ccc(O)c(OC)c2-c2ccc3c(c21)C(C)=CC(C)(C)N3` . Return the value.
6.72

Request body: readout pKi, system Progesterone receptor (Homo sapiens, UniProt P06401), query `CC/C=C(\C)c1ccsc1/C=C1\Oc2ccc(O)c(OC)c2-c2ccc3c(c21)C(C)=CC(C)(C)N3` . Return the value.
7.24

Request body: readout pKi, system Progesterone receptor (Homo sapiens, UniProt P06401), query COc1c(O)ccc2c1-c1ccc3c(c1/C(=C/c1sccc1C(O)C(F)(F)F)O2)C(C)=CC(C)(C)N3 (racemic) . Return the value.
5.75

* * *

Field: pKi. Provide a value for each of the molecules that follow.
- assay_target: Androgen receptor (Homo sapiens)
- Sequence (P10275 whole entry): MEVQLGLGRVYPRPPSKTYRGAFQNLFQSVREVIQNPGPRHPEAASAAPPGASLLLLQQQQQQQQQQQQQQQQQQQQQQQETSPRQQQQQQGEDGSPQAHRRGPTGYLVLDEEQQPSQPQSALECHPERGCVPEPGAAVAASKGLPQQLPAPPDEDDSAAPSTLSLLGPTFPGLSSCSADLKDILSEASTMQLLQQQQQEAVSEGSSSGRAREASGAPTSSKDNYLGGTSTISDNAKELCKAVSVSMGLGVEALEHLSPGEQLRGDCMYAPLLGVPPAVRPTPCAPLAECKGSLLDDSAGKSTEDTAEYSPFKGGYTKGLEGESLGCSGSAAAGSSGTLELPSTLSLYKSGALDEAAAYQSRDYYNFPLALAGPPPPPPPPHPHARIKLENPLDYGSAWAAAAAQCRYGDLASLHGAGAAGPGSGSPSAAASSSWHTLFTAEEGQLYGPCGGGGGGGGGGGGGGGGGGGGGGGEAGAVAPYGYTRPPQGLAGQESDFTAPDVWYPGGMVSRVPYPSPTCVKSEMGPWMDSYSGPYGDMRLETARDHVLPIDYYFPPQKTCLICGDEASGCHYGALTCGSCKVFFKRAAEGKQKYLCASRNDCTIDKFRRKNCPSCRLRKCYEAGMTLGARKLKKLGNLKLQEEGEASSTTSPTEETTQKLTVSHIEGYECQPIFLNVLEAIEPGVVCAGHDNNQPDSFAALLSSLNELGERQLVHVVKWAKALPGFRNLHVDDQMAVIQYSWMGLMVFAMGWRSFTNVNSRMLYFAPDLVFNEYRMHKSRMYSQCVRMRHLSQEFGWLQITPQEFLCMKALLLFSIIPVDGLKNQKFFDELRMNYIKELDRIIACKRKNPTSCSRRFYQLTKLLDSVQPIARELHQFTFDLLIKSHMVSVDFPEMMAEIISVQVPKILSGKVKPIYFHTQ
The quantity pKi is defined as the negative base-10 logarithm of the molar concentration.

What value of measured pKi is listed for `CO/N=C(\C)c1ccsc1/C=C1\Oc2ccc(O)c(OC)c2-c2ccc3c(c21)C(C)=CC(C)(C)N3` ?
6.96

What value of measured pKi is listed for `COCc1ccsc1/C=C1\Oc2ccc(O)c(OC)c2-c2ccc3c(c21)C(C)=CC(C)(C)N3` ?
6.82

What value of measured pKi is listed for `CC/C=C(\C)c1ccsc1/C=C1\Oc2ccc(O)c(OC)c2-c2ccc3c(c21)C(C)=CC(C)(C)N3` ?
6.46

What value of measured pKi is listed for `COc1c(O)ccc2c1-c1ccc3c(c1/C(=C/c1sccc1CO)O2)C(C)=CC(C)(C)N3` ?
6.54

What value of measured pKi is listed for COc1c(O)ccc2c1-c1ccc3c(c1/C(=C/c1sccc1C(C)O)O2)C(C)=CC(C)(C)N3 (racemic) ?
5.82
